Target under test: p38 MAPK (Homo sapiens, UniProt Q16539)
Sequence (Q16539 whole entry): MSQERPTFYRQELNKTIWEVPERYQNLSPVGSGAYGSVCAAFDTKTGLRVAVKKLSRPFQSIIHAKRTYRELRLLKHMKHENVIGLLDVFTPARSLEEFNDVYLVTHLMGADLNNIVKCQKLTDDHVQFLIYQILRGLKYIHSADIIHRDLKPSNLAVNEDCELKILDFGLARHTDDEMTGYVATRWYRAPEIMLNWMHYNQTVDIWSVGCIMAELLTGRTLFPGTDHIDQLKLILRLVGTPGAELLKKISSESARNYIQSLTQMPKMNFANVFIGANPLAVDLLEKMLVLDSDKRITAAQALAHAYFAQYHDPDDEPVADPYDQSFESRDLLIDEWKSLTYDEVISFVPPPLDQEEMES
Assay metric: IC50 (nM)
The reply should be a number in nM, with the unit left off.

Task: Lab note: need IC50 with p38 MAPK (Homo sapiens, UniProt Q16539) for entry "Cc1cccc(-c2nn3c(c2-c2ccnc4ccc(C(N)=O)cc24)CCC3)n1" , please look it up.
Result: 379

Attribution: paper PMC4414180
